# System: Purpureocillium lilacinum spores
# Assay text: Spore viability (germination rate) of Purpureocillium lilacinum spores dispersed in fluid and stored at 30° C.
# Type: cell-based
# Conditions used: P. lilacinum spores in fluid, day 1
Readout label: spore viability [%] at day 1 (%)

{"Molecule": "CC(=O)OCC(COC(C)=O)OC(C)=O [Triacetin, Glycerin triacetate]", "Endpoint value": 98.3}
{"Molecule": "CCCCCOC(=O)CC [Pentyl Propionate, Propionic acid Pentyl ester]", "Endpoint value": 99.1}
{"Molecule": "CCCCCCCCCCCC(=O)OCC(CC)CCCC (stereo not drawn) [Radia 7127, 2-Ethylhexyl laurate]", "Endpoint value": 99.1}
{"Molecule": "CCCCOC(=O)CC(CC(=O)OCCCC)(OC(C)=O)C(=O)OCCCC [Acetyltributylcitrat, O-Acetyl citric acid tributyl ester]", "Endpoint value": 98.9}
{"Molecule": "CCCCOC(=O)CCCCC(=O)OCCCC [Adimoll DB, di-n-Butyl adipate]", "Endpoint value": 98.9}
{"Molecule": "CC(C)OC(=O)CCCCC(=O)OC(C)C [Crodamol DA, Diisopropyl adipate]", "Endpoint value": 98.2}

---

# Tested on: Penicillium bilaii spores
# Assay text: Spore viability (germination rate) of Penicillium bilaii spores dispersed in fluid and stored at 30° C.
# Type: cell-based
# Conditions used: Penicillium bilaii spores in fluid, storage at 30° C., 83-85 d
# Protocol: 1.5 g of Penicillium bilaii pure spore powder were transferred into a formulation vessel (IKA Type DT-20 mixing vessel with dispersion tool for Ultra Turrax) using a sterile spoon. 13.5 mL of fluid were added into the respective formulation vessel and dispersed using ultra turrax tube drive control for 1 min at 3000 rpm; change direction after 30 sec. […] In regular intervals a sample was retrieved from the storage location and analyzed for spore viability. […]
So basically, if spore viability [%] 3 m@30° C. (83-85 d) comes in under 70% it's Condition met, and if it's 70% or more it's Condition not met.

{"Compound": "CCCCCCCC/C=C\\CCCCCCCC(=O)OCC(CC)CCCC (stereo not drawn) [Radia 7331, 2-Ethylhexyl oleate]", "Group": "Condition not met"}
{"Compound": "CC(=O)OCC(COC(C)=O)OC(C)=O [Triacetin, Glycerin triacetate]", "Group": "Condition met"}
{"Compound": "CCCCOC(=O)CCCCC(=O)OCCCC [Adimoll DB, di-n-Butyl adipate]", "Group": "Condition not met"}
{"Compound": "CCCCCCCCCCCC(=O)OCC(CC)CCCC (stereo not drawn) [Radia 7127, 2-Ethylhexyl laurate]", "Group": "Condition not met"}
{"Compound": "CCCCOC(=O)CC(CC(=O)OCCCC)(OC(C)=O)C(=O)OCCCC", "Group": "Condition met"}

---

# Tested on: Beauveria bassiana spores
# Assay text: Spore viability (germination rate) of Beauveria bassiana spores dispersed in fluid and stored at 30° C.
# Type: cell-based
# Conditions used: Beauveria bassiana spores in fluid, storage at 30° C., 35 d
Each record here notes measured spore viability [%] after 5 w (35 d).

{"Compound": "CCCCOC(=O)CC(CC(=O)OCCCC)(OC(C)=O)C(=O)OCCCC", "spore viability [%] after 5 w (35 d) / %": 58.8}
{"Compound": "CCCCCCCC/C=C\\CCCCCCCC(=O)OCC(CC)CCCC (stereo not drawn) [Radia 7331, 2-Ethylhexyl oleate]", "spore viability [%] after 5 w (35 d) / %": 66.3}
{"Compound": "CC(C)CCCCCCOC(=O)C1CCCCC1C(=O)OCCCCCCC(C)C (stereo not drawn)", "spore viability [%] after 5 w (35 d) / %": 57.8}
{"Compound": "CCCCOC(=O)CCCCC(=O)OCCCC [Adimoll DB, di-n-Butyl adipate]", "spore viability [%] after 5 w (35 d) / %": 37.7}
{"Compound": "CCCCCCCCCCCC(=O)OCC(CC)CCCC (stereo not drawn) [Radia 7127, 2-Ethylhexyl laurate]", "spore viability [%] after 5 w (35 d) / %": 68.4}
{"Compound": "CC(=O)OCC(COC(C)=O)OC(C)=O [Triacetin, Glycerin triacetate]", "spore viability [%] after 5 w (35 d) / %": 31.6}
